# Tested on: STREPTOCOCCUS PYOGENES EES61
# method.description: In vitro assay of antibacterial activity (agar dilution MIC)
# Assay type: cell-based
# measurement.parameters: STREPTOCOCCUS PYOGENES EES61; BHI agar, 35-37 °C for 20 to 24 hours; unit assumed
Labelling field: enter 1 if recorded Antibacterial Activity (MIC's) is less than 0.1 mg/L. Enter -1 if it equals or exceeds that cut-off.

Q: Antibacterial Activity (MIC's) strictly < 0.1 mg/L for this compound? CC[C@H]1OC(=O)[C@H](C)C(=O)[C@H](C)[C@@H](O[C@@H]2O[C@H](C)C[C@H](N(C)C)[C@H]2O)[C@](C)(OC)C[C@@H](C)C2=Nc3cc(C#N)ccc3N3C(=O)O[C@@]1(C)[C@H]3[C@H]2C
Result: 1

Q: Also need C=CCO[C@]1(C)C[C@@H](C)C2=Nc3ccccc3N3C(=O)O[C@](C)([C@@H](CC)OC(=O)[C@H](C)C(=O)[C@H](C)[C@H]1O[C@@H]1O[C@H](C)C[C@H](N(C)C)[C@H]1O)[C@H]3[C@H]2C , thanks.
Result: -1

Q: One more compound: CC[C@H]1OC(=O)[C@H](C)C(=O)[C@H](C)[C@@H](O[C@@H]2O[C@H](C)C[C@H](N(C)C)[C@H]2O)[C@](C)(OC)C[C@@H](C)C2Nc3ccccc3N3C(=O)O[C@@]1(C)[C@H]3[C@H]2C (single isomer, unassigned)
Result: -1

Q: Again, but for CC[C@H]1OC(=O)[C@H](C)C(=O)[C@H](C)[C@@H](O[C@@H]2O[C@H](C)C[C@H](N(C)C)[C@H]2O)[C@](C)(OC)C[C@@H](C)C2=Nc3cc(OC)ccc3N3C(=O)O[C@@]1(C)[C@H]3[C@H]2C
Result: 1

###

# System: STAPHYLOCOCCUS AUREUS CMX 553
# method.description: In vitro assay of antibacterial activity (agar dilution MIC)
# Assay type: cell-based
# measurement.parameters: BHI agar, 35-37 °C for 20 to 24 hours, unit assumed
Entries and their Antibacterial Activity (MIC's) values follow.
A number alone suffices; assume mg/L.

Record excerpt, results attached:
compound	units.text	Antibacterial Activity (MIC's)
C=CCO[C@]1(C)C[C@@H](C)C2=Nc3ccccc3N3C(=O)O[C@](C)([C@@H](CC)OC(=O)[C@H](C)C(=O)[C@H](C)[C@H]1O[C@@H]1O[C@H](C)C[C@H](N(C)C)[C@H]1O)[C@H]3[C@H]2C	mg/L	0.78
CC[C@H]1OC(=O)[C@H](C)[C@@H](O[C@H]2C[C@@](C)(OC)[C@@H](O)[C@H](C)O2)[C@H](C)[C@@H](O[C@@H]2O[C@H](C)C[C@H](N(C)C)[C@H]2O)[C@](C)(O)C[C@@H](C)C(=O)[C@H](C)[C@@H](O)[C@]1(C)O [Ery A, Erythromycin A, reference compound]	mg/L	0.39

# next compound below
Q: Given CC[C@H]1OC(=O)[C@H](C)C(=O)[C@H](C)[C@@H](O[C@@H]2O[C@H](C)C[C@H](N(C)C)[C@H]2O)[C@](C)(OC)C[C@@H](C)C2=Nc3ccccc3N3C(=O)O[C@@]1(C)[C@H]3[C@H]2C , state its recorded Antibacterial Activity (MIC's).
Result: 0.39

The values you see were collected from patent EP0984975B1.
